# measured_target: human α1A-adrenoceptor (Homo sapiens, UniProt P35348)
# Construct: CHO cells stably expressing either the full‐length human α1A, α1B, or α1D‐adrenoceptor
# Sequence (P35348 whole entry): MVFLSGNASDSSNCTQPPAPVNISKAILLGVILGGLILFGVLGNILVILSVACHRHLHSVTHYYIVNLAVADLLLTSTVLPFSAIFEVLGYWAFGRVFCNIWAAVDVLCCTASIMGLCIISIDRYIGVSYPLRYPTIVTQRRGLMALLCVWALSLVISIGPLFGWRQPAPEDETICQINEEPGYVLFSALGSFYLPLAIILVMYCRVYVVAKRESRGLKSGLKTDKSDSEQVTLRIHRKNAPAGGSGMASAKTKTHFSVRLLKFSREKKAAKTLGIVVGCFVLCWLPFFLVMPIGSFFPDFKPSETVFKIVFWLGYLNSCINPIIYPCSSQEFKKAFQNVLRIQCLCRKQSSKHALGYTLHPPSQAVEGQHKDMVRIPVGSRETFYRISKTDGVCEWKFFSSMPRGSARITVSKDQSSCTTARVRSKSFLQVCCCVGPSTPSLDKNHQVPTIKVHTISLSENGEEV
# protocol_notes: [3H]prazosin whole-cell competition binding, CHO-α1A cells
assay_endpoint: Selectivity ratio α1A vs α1D (fold)
Give the value in fold but do not write fold after it.

>>> assay_value("CN1CCc2cccc(Cl)c2CC1")
7.9
>>> assay_value("CN(C)CCCN1c2ccccc2CCc2ccc(Cl)cc21")
93
>>> assay_value("CN(C)CCC=C1c2ccccc2CCc2ccccc21")
87

Could you now consider this next compound?
Quick check: Selectivity ratio α1A vs α1D of CN(C)CCCN1c2ccccc2CCc2ccccc21 ?
38

Data origin: paper PMC7327383
